B1: Osa-1-4 twister ribozyme (parent)
chain: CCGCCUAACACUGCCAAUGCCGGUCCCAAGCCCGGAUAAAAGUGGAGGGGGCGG

# Variants of: B1
# assay-protocol: self-cleavage, relative activity (ratio to wild type); higher = more cleavage; co-transcriptional
parameter-measured: self-cleavage

[[record]]
item_sequence = "CCGCCUAACACUGCCAAUGCCGGUCCCACGCCCGGAUAAAAGUGGAAGGGGCGG"
obs_value = 0.02

[[record]]
item_sequence = "CCGCCUAACACUGCCAAUGCCGGUCCCAAGCCCUUAUAAAAGUGGAGGGGGCGG"
obs_value = 0.52

[[record]]
item_sequence = "CCGCCUAACACUGCCAAUGCCGGUCCCAAGCCCGGCUAAAAGUGGAGUGGGCGG"
obs_value = 0.04

[[record]]
item_sequence = "CCGCCUAACACUGCCACUGCCGGUCCCAAGCCCGAAUAAAAGUGGAGGGGGCGG"
obs_value = 0.6

